assayed-target: BuChE from human serum (Homo sapiens, UniProt P06276)
Construct: 0.01 unit BuChE from human serum; from tissue; host or cells: human serum
Sequence (P06276 29-602): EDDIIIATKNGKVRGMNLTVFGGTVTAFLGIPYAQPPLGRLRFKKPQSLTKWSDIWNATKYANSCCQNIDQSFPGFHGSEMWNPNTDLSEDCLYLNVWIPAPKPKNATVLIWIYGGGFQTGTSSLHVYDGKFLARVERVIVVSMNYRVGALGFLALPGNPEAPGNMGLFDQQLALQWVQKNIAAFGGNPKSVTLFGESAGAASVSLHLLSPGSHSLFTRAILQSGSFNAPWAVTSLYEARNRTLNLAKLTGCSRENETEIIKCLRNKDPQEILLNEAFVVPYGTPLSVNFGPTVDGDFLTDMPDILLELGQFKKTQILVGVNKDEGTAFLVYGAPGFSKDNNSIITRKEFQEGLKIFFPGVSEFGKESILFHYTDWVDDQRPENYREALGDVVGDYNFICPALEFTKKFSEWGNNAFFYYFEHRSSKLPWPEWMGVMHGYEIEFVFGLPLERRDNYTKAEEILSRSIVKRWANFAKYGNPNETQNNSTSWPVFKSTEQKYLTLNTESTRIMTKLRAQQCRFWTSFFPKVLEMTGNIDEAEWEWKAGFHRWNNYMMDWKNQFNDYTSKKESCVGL
test-name: Butyrylcholinesterase (BuChE) inhibition, Ellman colorimetric method
Type: biochemical
assay-context: BuChE from human serum, 30° C., pH 8; read-out: IC50 BuChE
The entries below come with measured pIC50 values attached.
Keep it numeric: pIC50 is minus log10 of the concentration in mol/L.

mol_smiles=O=C(NCCCCCCNc1c2c(nc3cc(Cl)ccc13)CCCC2)c1c[nH]c2ccccc12 measurement=8.77
mol_smiles=O=C(CCc1c[nH]c2ccccc12)NCCCCCCCNc1c2c(nc3cc(Cl)ccc13)CCCC2 measurement=10.00
mol_smiles=O=C(NCCCCCCCNc1c2c(nc3cc(Cl)ccc13)CCCC2)c1c[nH]c2ccccc12 measurement=7.72

In the following, a different compound is considered.
QUERY: Which pIC50 is listed for `O=C(NCCCCCCCNc1c2c(nc3cc(Cl)ccc13)CCCC2)c1n[nH]c2ccccc12` ?
RESULT: 7.10
